measured target: T1, Human CD47-C33G (human, UniProt Q08722 19-135)
T1 construct: also called CD47 mutein with C33G mutation
T1 sequence (Q08722 19-135 C33G limits assumed): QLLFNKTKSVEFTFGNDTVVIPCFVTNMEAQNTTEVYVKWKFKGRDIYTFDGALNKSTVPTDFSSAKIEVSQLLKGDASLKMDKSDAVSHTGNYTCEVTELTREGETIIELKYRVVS
protocol: SPR, IgG captured, CD47 in flow; exp 3;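 note: other target is a CD47 mutein carrying C33G, used to obtain true monovalent affinity, with kon and koff fitted from SPR binding curves and KD derived from both rates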

| binder | koff / s⁻¹ |
| --- | --- |
| chimeric antibody 108C10A6 (antibody, V domains shown, Chimeric antibody with mouse variable domains; captured through human Fc; also called VH / VL) VH: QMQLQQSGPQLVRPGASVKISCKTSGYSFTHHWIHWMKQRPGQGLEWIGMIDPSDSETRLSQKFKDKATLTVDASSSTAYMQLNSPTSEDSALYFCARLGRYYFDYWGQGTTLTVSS VL: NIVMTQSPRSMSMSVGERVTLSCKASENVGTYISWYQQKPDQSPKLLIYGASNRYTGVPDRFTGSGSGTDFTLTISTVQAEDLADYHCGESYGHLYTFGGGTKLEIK | 0.00063 |
| 108VH10.Mg / 108VL10.Me (antibody, V domains shown, 4D5-framework series; constant regions not restated for this series; also called VH10.Mg VL10.Me) VH: EVQLVESGGGLVQPGGSLRLSCAASGFTFSHHWIHWVRQAPGKGLEWVAMIDASDSETRLSQKFKDRFTISADTSKNTAYLQMNSLRAEDTAVYYCSRLGRYYFDYWGQGTLVTVSS VL: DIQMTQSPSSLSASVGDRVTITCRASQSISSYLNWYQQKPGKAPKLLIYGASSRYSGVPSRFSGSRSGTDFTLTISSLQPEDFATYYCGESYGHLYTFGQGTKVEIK | 0.0072 |
| 108VH10.Mj / 108VL10.Me (antibody, V domains shown, 4D5-framework series; constant regions not restated for this series; also called VH10.Mj VL10.Me) VH: EVQLVESGGGLVQPGGSLRLSCAASGFTFSHHWIHWVRQAPGKGLEWVAMIDASDSETRLSQSFKDRFTISADTSKNTAYLQMNSLRAEDTAVYYCSRLGRYYFDYWGQGTLVTVSS VL: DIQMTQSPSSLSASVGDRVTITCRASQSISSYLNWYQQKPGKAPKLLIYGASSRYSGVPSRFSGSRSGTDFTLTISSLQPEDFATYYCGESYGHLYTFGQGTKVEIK | 0.0078 |
